src = patent US20190033318A1

Biological target: T1, 1α PASB (HIF-1α PASB domain, 238-349) (UniProt Q16665 238-349, labelled with NT-647-NHS dye in MST)
T1 construct: range 238-349; not shown: His6 tag of vector pET28, then Met
T1 sequence (Q16665 238-349): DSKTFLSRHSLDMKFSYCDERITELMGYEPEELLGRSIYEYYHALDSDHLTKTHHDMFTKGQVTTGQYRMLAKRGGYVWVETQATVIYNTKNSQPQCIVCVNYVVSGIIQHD
Test: competition ELISA: 1α PASB on Ni plate, peptide titrated, blocked partner GST-1β; the value stands in the panel without a name, the ELISA fits give IC50; the fall is only partial
Consider the following binders; for each one, report its pIC50.
Numbers only, as −log10 of the molar value.

Binder: CRVIIA (also called alanine scan peptide of CRVIIF, position 6 (F to A))
pIC50: 3.96

The record that follows has no pIC50 shown yet.
input: Provide only the value of recorded pIC50 for CRAIIF (also called alanine scan peptide of CRVIIF, position 3 (V to A))
output: 4.29
